Test system: OVCAR-8 ovarian
Assay Text: NCI-60 one-dose screen, 48 h
Reported Conditions: 10 µM unless noted
Compounds without any hit were thinned out: in the full panel of roughly 83,000, 20% have a hit. The source made the active and inactive calls. The calls were made as follows: active = growth percent below 10; inactive = the rest.
Form entry, call: pick from active, inactive

{"Molecule": "CC/C=C\\C[C@H]1C/C=C2/C(=O)C(Cl)=C[C@@H]2C/C=C\\CCCC(=O)O1", "System": "OVCAR-8 ovarian", "Qualitative Label": "active"}
{"Molecule": "Oc1ccc(Cl)cc1-c1cc(-c2ccc(Cl)cc2)n[nH]1", "System": "OVCAR-8 ovarian", "Qualitative Label": "inactive"}

// query Assay outcome for COC(=O)c1cc(-c2cccs2)c(C#N)c(N)c1C#N : what was it?
// result inactive

// query Assay outcome for CN=S(=O)(NC(=O)c1ccc(Cl)cc1Cl)c1ccc(Br)s1 (stereo not given) : what was it?
// result inactive

// query Assay outcome for COc1ccc(NC(=O)CSc2nc3ccccc3c(=O)n2-c2ccccc2C(F)(F)F)c(OC)c1OC : what was it?
// result inactive

// query Assay outcome for O=C(Nc1ccc(Br)c(Cl)c1)c1cc(F)ccc1O : what was it?
// result active
